The origin of these recorded values is patent US10399940B2.

- target under test: F508delCFTR (Homo sapiens, UniProt P13569, DEL508-508)
- Construct: expressed in transfected cells; host or cells: CFBE41o- (human lung derived epithelial cell line), doxycycline-inducible expression
- Sequence (P13569 with tags, fused parts or gaps DEL508-508): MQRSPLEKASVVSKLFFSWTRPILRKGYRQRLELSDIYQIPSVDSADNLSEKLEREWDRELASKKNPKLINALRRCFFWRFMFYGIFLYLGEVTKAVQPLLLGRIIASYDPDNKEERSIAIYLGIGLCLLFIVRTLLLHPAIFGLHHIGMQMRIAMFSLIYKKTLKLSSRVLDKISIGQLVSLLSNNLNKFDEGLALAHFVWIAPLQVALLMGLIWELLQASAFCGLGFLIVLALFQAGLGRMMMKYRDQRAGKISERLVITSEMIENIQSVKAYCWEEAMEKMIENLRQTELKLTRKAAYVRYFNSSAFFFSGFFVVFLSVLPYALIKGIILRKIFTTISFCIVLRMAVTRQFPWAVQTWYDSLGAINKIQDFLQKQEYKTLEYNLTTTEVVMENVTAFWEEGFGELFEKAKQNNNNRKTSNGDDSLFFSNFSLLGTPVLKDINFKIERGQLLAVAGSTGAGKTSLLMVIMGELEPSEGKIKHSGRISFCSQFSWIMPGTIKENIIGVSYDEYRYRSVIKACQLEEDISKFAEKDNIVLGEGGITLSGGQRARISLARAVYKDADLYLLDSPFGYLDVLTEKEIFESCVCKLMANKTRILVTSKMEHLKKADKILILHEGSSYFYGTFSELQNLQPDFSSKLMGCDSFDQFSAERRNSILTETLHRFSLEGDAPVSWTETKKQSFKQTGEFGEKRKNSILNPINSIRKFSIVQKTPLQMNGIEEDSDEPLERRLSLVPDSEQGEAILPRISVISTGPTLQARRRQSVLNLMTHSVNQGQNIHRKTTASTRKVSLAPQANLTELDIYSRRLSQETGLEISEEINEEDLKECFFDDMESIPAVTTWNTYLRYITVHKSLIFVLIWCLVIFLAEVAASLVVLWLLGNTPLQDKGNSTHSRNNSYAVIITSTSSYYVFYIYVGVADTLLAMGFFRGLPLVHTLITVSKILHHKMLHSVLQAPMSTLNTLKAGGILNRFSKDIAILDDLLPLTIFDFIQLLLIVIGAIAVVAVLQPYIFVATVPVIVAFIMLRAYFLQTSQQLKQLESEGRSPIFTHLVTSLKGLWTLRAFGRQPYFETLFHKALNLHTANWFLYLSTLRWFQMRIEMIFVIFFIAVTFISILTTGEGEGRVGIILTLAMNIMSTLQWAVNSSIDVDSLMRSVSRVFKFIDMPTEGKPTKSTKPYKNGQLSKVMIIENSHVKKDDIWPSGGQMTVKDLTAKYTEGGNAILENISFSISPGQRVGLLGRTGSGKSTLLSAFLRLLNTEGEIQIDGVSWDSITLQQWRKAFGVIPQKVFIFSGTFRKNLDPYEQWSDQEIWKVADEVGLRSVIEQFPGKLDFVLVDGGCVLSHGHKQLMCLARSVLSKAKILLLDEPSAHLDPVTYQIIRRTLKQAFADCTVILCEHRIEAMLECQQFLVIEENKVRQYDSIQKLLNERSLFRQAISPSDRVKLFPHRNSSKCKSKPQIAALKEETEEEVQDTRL
- protocol text: Cell Surface Expression-Horse Radish Peroxidase (CSE-HRP) assay;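 further: % of on-plate positive control (2 µM of the co-corrector compound) after DMSO subtraction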
- Format: cell-based
- measurement setup: CFBE41o-F508delCFTR-HRP cells; with co-corrector (2 μM); normalized to on-plate positive control; highest concentration 20 μM

given smiles | Maximum % activity (with co-corrector)
COc1ncc(C2CCC2)cc1CO[C@H]1[C@H](C(C)(C)C)[C@@H](C(=O)O)N(C(=O)OC(C)C)[C@H]1c1ccccc1 | +++ (≥350)
COc1nc2ccccc2cc1CO[C@H]1[C@H](C(C)(C)C)[C@@H](C(=O)O)N(C(=O)[C@@H]2CCCO2)[C@H]1c1ccccc1C(C)C | +++ (≥350)
COc1ncc(C2CCC2)cc1CO[C@H]1[C@H](C(C)(C)C)[C@@H](C(=O)O)N(C(=O)[C@@H]2CCCCO2)[C@H]1c1ccccc1C1CC1 | +++ (≥350)
COc1ncc(C(F)(F)F)cc1CO[C@H]1[C@H](C(C)(C)C)[C@@H](C(=O)O)N(C(=O)[C@@H]2CCCO2)[C@H]1c1ccccc1C1CC1 | +++ (≥350)

* * *

- target under test: F508delCFTR (Homo sapiens, UniProt P13569, DEL508-508)
- Construct: expressed in transfected cells; host or cells: CFBE41o- (human lung derived epithelial cell line), doxycycline-inducible expression
- protocol text: Cell Surface Expression-Horse Radish Peroxidase (CSE-HRP) assay;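 further: % of on-plate positive control (2 µM of the co-corrector compound) after DMSO subtraction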
- Format: cell-based
- measurement setup: CFBE41o-F508delCFTR-HRP cells; with co-corrector (2 μM); normalized to on-plate positive control; highest concentration 20 μM
assay metric: Maximum % activity (with co-corrector)

The examples below pair each entry with its known result.
compound | endpoint value
COc1ncc(C2CCC2)cc1CO[C@H]1[C@H](C(C)(C)C)[C@@H](C(=O)O)N(C(=O)C2CCCCC2)[C@H]1c1ccccc1C1CC1 | +++ (≥350)
COc1ccc(C(F)(F)F)cc1[C@@](O)(CO)CO[C@H]1[C@H](C(C)(C)C)[C@@H](C(=O)O)N(C(=O)[C@@H]2CCCCO2)[C@H]1c1ccccc1C | ++ (≥150 and <350)
COc1nc(C(C)(C)C)ccc1CO[C@H]1[C@H](C(C)(C)C)[C@@H](C(=O)O)N(C(=O)[C@@H]2CCCCO2)[C@H]1c1cccnc1OC(C)C | +++ (≥350)
COc1ncc(C(F)(F)F)cc1CO[C@H]1[C@H](C(C)(C)C)[C@@H](C(=O)O)N(C(=O)[C@@H]2CCCCO2)[C@H]1c1cc(I)ccc1C | ++ (≥150 and <350)

Could you now consider this next compound?
[in] Please look up its Maximum % activity (with co-corrector): COc1ccc(C(F)(F)F)cc1COC1[C@@H](c2ccccc2)N(C(=O)C2CCCCC2)[C@@H](C(=O)NS(C)(=O)=O)[C@@H]1C(C)(C)C (mixture of isomers)
[out] ++ (≥150 and <350)

* * *

- target under test: F508delCFTR (Homo sapiens, UniProt P13569, DEL508-508)
- Construct: expressed in transfected cells; host or cells: CFBE41o- (human lung derived epithelial cell line), doxycycline-inducible expression
- protocol text: Cell Surface Expression-Horse Radish Peroxidase (CSE-HRP) assay;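 further: % of on-plate positive control (2 µM of the co-corrector compound) after DMSO subtraction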
- Type: cell-based
- measurement setup: CFBE41o-F508delCFTR-HRP cells; with co-corrector (2 μM); normalized to on-plate positive control; highest concentration 20 μM
assay metric: Maximum % activity (with co-corrector)

The examples below pair each entry with its known result.
compound | Maximum % activity (with co-corrector)
COc1ncc(C(F)(F)F)cc1CO[C@H]1[C@H](C(C)(C)C)[C@@H](C(=O)O)N(C(=O)[C@@H]2CCCCO2)[C@H]1c1ccccc1 | +++ (≥350)
COc1ncc(C(F)(F)F)cc1CO[C@H]1[C@H](C(C)(C)C)[C@@H](C(=O)O)N(C(=O)[C@H]2C[C@@H]3CC[C@H]2O3)[C@H]1c1cccc(C(C)(C)C)c1 | ++ (≥150 and <350)
COc1ccc(C(F)(F)F)cc1CO[C@H]1[C@H](C(C)(C)C)[C@@H](C(=O)O)N(C(=O)[C@@H]2CCCCO2)[C@H]1c1ccccc1C | +++ (≥350)
COc1ccc(C(F)(F)F)cc1CO[C@@H]1[C@@H](C(C)(C)C)[C@H](C(=O)O)N(C(=O)C2CCCCC2)[C@@H]1c1ccccc1 | ++ (≥150 and <350)

[in] Please look up its Maximum % activity (with co-corrector): COc1ccc(C(F)(F)F)cc1CO[C@@H]1[C@@H](C(C)(C)C)[C@H](C(=O)O)N(C(=O)[C@@H]2CCC[C@@H](OC)C2)[C@@H]1c1ccccc1 (mixture of isomers)
[out] +++ (≥350)
